Target or test system: Multidrug efflux pump subunit AcrB (Escherichia coli (strain K12)) (UniProt P31224)
Sequence (whole entry): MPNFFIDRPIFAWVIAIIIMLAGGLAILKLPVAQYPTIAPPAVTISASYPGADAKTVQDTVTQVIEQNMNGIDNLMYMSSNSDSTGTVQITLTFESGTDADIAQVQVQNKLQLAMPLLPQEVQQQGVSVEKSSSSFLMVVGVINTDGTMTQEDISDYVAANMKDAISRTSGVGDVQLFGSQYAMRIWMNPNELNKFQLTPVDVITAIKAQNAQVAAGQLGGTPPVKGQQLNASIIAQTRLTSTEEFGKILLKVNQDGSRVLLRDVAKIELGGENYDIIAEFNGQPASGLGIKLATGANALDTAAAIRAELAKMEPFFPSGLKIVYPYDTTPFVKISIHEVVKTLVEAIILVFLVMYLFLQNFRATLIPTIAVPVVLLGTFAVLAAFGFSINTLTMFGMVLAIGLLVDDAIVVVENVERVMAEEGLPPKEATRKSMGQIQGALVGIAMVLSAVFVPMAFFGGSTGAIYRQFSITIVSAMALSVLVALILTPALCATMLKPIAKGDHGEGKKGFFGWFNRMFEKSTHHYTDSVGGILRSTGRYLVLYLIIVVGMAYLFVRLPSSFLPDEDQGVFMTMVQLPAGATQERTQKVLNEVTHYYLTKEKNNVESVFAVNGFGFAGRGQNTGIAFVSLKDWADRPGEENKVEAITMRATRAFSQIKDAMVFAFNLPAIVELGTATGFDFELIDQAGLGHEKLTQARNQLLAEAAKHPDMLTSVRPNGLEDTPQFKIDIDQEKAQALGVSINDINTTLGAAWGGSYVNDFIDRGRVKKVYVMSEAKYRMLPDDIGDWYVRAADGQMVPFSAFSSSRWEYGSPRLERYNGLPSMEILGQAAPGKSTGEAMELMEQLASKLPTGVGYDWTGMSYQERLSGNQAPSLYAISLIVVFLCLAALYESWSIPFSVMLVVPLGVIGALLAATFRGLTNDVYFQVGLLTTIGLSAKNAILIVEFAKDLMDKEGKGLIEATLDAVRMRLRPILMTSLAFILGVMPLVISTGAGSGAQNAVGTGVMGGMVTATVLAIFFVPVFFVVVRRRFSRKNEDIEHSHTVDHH
Procedure details: Inhibition of AcrB in multidrug-resistant Escherichia coli BW25113 assessed as potentiation of chloramphenicol-induced antibacterial activity by measuring chloramphenicol MIC at 16 ug/ml by checkerboard titration method (reference value: 8 ug/ml)
Recorded conditions: dose 16.0 µg/ml
Measured parameter: MIC

INPUT: Find the recorded MIC belonging to `CC1(C)CCc2c(Cn3cnnn3)cc3c(OCc4ccc([N+](=O)[O-])cc4)cccc3c2O1` and report it.
OUTPUT: 8 µg/mL

INPUT: Returns the measured MIC for the input compound. Input: `CC1(C)CCc2c(Cn3cnnn3)cc3c(OCc4ccccc4)cccc3c2O1`
OUTPUT: 8 µg/mL

INPUT: Which MIC value is on record for `C=CC(=O)Nc1ccc(COc2cccc3c4c(c(Cn5cnnn5)cc23)CCC(C)(C)O4)cc1` ?
OUTPUT: 8 µg/mL

INPUT: Please give the measured MIC for this compound: `C=CC(=O)Nc1ccc(COc2cccc3c4c(c(C(=O)N5CCOCC5)cc23)CCC(C)(C)O4)cc1`
OUTPUT: 4 µg/mL

INPUT: Item under review: `COc1cccc(COc2cccc3c4c(c(-c5nnco5)cc23)CCC(C)(C)O4)c1` . Reported MIC?
OUTPUT: 8 µg/mL

INPUT: Give its MIC value. Item: `CC1(C)CCc2c(-c3nnco3)cc3c(OCc4ccccc4)cccc3c2O1`
OUTPUT: 8 µg/mL

INPUT: What value of MIC has been recorded for this entry: `CC1(C)CCc2c(Cn3cnnn3)cc3c(OCc4ccc(OC(F)(F)F)cc4)cccc3c2O1`
OUTPUT: 8 µg/mL

INPUT: Tell me the measured MIC of `CC1(C)CCc2c(C(=O)O)cc3c(OCc4ccccc4)cccc3c2O1` , please.
OUTPUT: 8 µg/mL

INPUT: // MIC lookup, key: `Cc1ccccc1COc1cccc2c3c(c(-c4nnco4)cc12)CCC(C)(C)O3`
OUTPUT: 8 µg/mL

INPUT: Query (compound): `Cc1ccc(COc2cccc3c4c(c(-c5nnco5)cc23)CCC(C)(C)O4)cc1` ; field requested: MIC
OUTPUT: 8 µg/mL

INPUT: Endpoint output: MIC of `CC1(C)CCc2c(C(=O)N3CCOCC3)cc3c(OCc4ccc(C(F)(F)F)cc4)cccc3c2O1` . Value?
OUTPUT: 8 µg/mL

INPUT: Requested read-out: MIC. Entry: `COc1cccc(COc2cccc3c4c(c(C(=O)O)cc23)CCC(C)(C)O4)c1`
OUTPUT: 8 µg/mL

INPUT: Fill in the blank: the reported MIC of `CNC(=O)c1ccc(COc2cccc3c4c(c(Cn5cnnn5)cc23)CCC(C)(C)O4)cc1` is ____.
OUTPUT: 8 µg/mL

INPUT: Query (compound): `CC(C)NCCOc1ccc2c(c1)OC(C)(C)CC2=O` ; field requested: MIC
OUTPUT: 8 µg/mL

INPUT: Would you kindly share the measured MIC for `COc1cccc(COc2cccc3c4c(c(C(=O)N5CCOCC5)cc23)CCC(C)(C)O4)c1` ?
OUTPUT: 4 µg/mL

INPUT: Requested field: MIC. Item: `CC1(C)CC(=O)c2ccc(OCC(=O)Nc3ccc(C#N)c(C(F)(F)F)c3)cc2O1`
OUTPUT: 8 µg/mL

INPUT: Looking for the measured MIC of `CC1(C)CCc2c(-c3nnco3)cc3c(OCc4ccc(F)cc4)cccc3c2O1` , can you help?
OUTPUT: 8 µg/mL

INPUT: # input compound: `CC1(C)CC(=O)c2ccc(OCCNC3CCCC3)cc2O1` ; wanted: its MIC
OUTPUT: 8 µg/mL

INPUT: Reported MIC, compound CC1CN(C(=O)c2cc3c(OCc4ccc(Br)cc4)cccc3c3c2CCC(C)(C)O3)CC(C)O1 (stereo not given) : ____
OUTPUT: 8 µg/mL

INPUT: Recorded MIC of `CC1(C)CCc2c(-c3nnco3)cc3c(OCc4ccc([N+](=O)[O-])cc4)cccc3c2O1` , please.
OUTPUT: 8 µg/mL
